Listed variants paired with reported protein stability index
B1: ELF3 (parent)
chain: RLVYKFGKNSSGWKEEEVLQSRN

- Variants of: B1
- measurement.notes: protein stability index of a GFP-peptide fusion (GPS, HEK-293T) (PSI 1-6); higher = more stable;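 note: lentivirally expressed fusions sorted by FACS into six bins by GFP to DsRed ratio, PSI derived from sequencing read proportions per bin multiplied by bin number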
- run.conditions: c terminus: native
readout.name: protein stability index

INSERT INTO measurements (variant_spec, result) VALUES
  ('K14M', 2.88),
  ('S21Y', 2.72),
  ('Q20I', 1.71),
  ('G12V', 1.79),
  ('Q20G', 3.4),
  ('V3L', 1.9),
  ('N23S', 2.51),
  ('L19K', 3.02),
  ('G7P', 2.31),
  ('W13M', 3.91),
  ('N23F', 2.86),
  ('Y4S', 2.42),
  ('Y4P', 3.43),
  ('K5C', 2.52),
  ('K8G', 2.49),
  ('K14E', 3.31),
  ('F6G', 3.75),
  ('S21F', 1.94),
  ('S21G', 2.26),
  ('S11M', 1.73),
  ('N23E', 3.68),
  ('E16D', 2.15),
  ('N9R', 2.91),
  ('R22L', 2.56),
  ('N9Q', 1.87),
  ('K5V', 1.95),
  ('S10M', 1.9),
  ('E17M', 2.27),
  ('L19V', 2.55),
  ('V18L', 2.08),
  ('L19Q', 3.85),
  ('L2C', 2.29),
  ('L2W', 1.58),
  ('N23L', 3.28),
  ('G7V', 1.49),
  ('Y4Q', 3.16),
  ('K14C', 2.12),
  ('E17N', 1.6),
  ('V18K', 2.94),
  ('E16L', 3.56),
  ('K8D', 3.36),
  ('N23T', 2.37),
  ('K8H', 2.26),
  ('N23I', 1.8),
  ('N9T', 1.73);
